Test system: NF-κB
experiment: Test on the function of inhibiting the activation of NF-κB induced by ultraviolet rays (gel shift assay)
Type: cell-based, human
measurement-context: addition concentration 0.01 mM; human epidermal cells, UVB 50 mJ/cm^2
Decide using Inhibition ratio (%) of NF-κB activation: a value greater than or equal to 30% is class 1, a smaller one is class 0.

Data request: Can COC(=O)[C@H](CSSC[C@H](N)C(=O)O)NC(C)=O be said to have Inhibition ratio (%) of NF-κB activation at or above 30%?
Data returned: class 0

Data request: In plain terms: is recorded Inhibition ratio (%) of NF-κB activation at least 30% for CC(=O)N[C@@H](CSSC[C@H](NC(C)=O)C(=O)OC(C)C)C(=O)OC(C)C ?
Data returned: class 0

Data request: Could you please find out whether CCCCC(=O)N[C@@H](CSSC[C@H](NC(=O)CCCC)C(=O)OC)C(=O)OC has Inhibition ratio (%) of NF-κB activation that meets 30% or exceeds it?
Data returned: class 0

Data request: Answer whether Inhibition ratio (%) of NF-κB activation of CCCCCCCC(=O)N[C@@H](CSSC[C@H](NC(=O)CCCCCCC)C(=O)OC)C(=O)OC is greater than or equal to 30%.
Data returned: class 1

Data request: I'd appreciate it if you could say whether CCCCCC(=O)N[C@@H](CSSC[C@H](NC(=O)CCCCC)C(=O)OC)C(=O)OC has Inhibition ratio (%) of NF-κB activation at least equal to 30%.
Data returned: class 1

Data request: Would you say CCOC(=O)[C@H](CSSC[C@H](NC(C)=O)C(=O)OCC)NC(C)=O shows Inhibition ratio (%) of NF-κB activation at minimum 30%?
Data returned: class 1

Data request: Does the reported Inhibition ratio (%) of NF-κB activation for CCC(=O)N[C@@H](CSSC[C@H](NC(=O)CC)C(=O)OC)C(=O)OC fall at or above the 30% mark?
Data returned: class 0

Data request: Is the recorded value of Inhibition ratio (%) of NF-κB activation equal to or greater than 30% for this compound? S=C(S)N1CCCC1 [pyrrolidine dithiocarbamate, reference compound]
Data returned: class 0

Data request: Can CCCCCCCCCC(=O)N[C@@H](CSSC[C@H](NC(=O)CCCCCCCCC)C(=O)OC)C(=O)OC be said to have Inhibition ratio (%) of NF-κB activation at or above 30%?
Data returned: class 1

# credit: patent US20020115723A1
